Assay: soluble fraction after stress (log2 fold change); higher = more stays soluble; pooled small domains, quantitative proteomics;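 also: 20 min heating vs room temperature control held 20 min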
Conditions: stress: 75 degC
Using soluble fraction (log2) as the sorting value, the categories are group A: < -0.7; group B: ≥ -0.7 and < 0.2; group C: ≥ 0.2

                              item_sequence  category_label
0  HMENIIFDIGFHKGEDTLFYLLKGYRVIAVDADPDLINEWQNIFKKYIENGKLLLLNYVISDT         group A
1  HMTEDTPIIVERVVADIDENVVAIVRKFKDAFKSITAQREIKKKLRSILWVNYQIKDQEVFDKAYQYIEMY         group C
2  HMTTKYVAVHESKDGYWTIASKPSSKEDAEAMLGGTPKNEVGKVVTLEEAKAHKKTLGEEYLYE         group C
3  HMDPHEEELLRQLIRGDIAGYEVLFHKYYPTFFAFIKGMTKETVVAEDITQNIFMKVWLNRERLDAA         group B
4  HMLENIVFTNKFKNKRLDVLLVDMKLVSSRQKAVSLIMRGNVFVEEERADKPGKIIKLNQTISLKK         group A
5  HMEAYLPVTVVSDGKILTGNLEKAGKNEKWLENVLSELKTDVKNTLLLTVDPKDGLIFYPKG         group C
6  HMALPGESVYVSILQSGSNRDQGVGYLDDGTMVVVDGAIKDIGKSIEVVINKSHQTVAGKMLFAKKVA         group B
7  HMQQPVVVQQNQTVRVVTGGPGFQVANEGRALNNGLAGQVVQVRLGNGQIISGIARAGGIVEIL         group B
8  HMGLPLETVVTHATKLEIVRDGRVSGSIGLSAGVKVDVIALEGDNLQVRYRSLSGRVPVAHTGLAALA         group A
